- experimental parameters: siRNA; further: test system not given here
HELM strings list units from the 5' end as sugar, base in round brackets, then linkage (d deoxyribose, r ribose, m 2'-O-methyl, p phosphodiester). Strings are as the collection lists them, not checked against the first reports. ss, as = sense and antisense strand; [s4r] = 4'-thioribose
Please go through the items and note down their target mRNA knockdown.
Write the quantity with the unit trailing the number.

Below, 2 substances whose answers are already recorded.
INSERT INTO results (substance, assay_endpoint, measured_result) VALUES
  ('RNA1{m(G)p.r(C)p.m(A)p.r(A)p.m(G)p.r(U)p.m(G)p.r(G)p.m(C)p.r(A)p.m(A)p.r(G)p.m(A)p.r(G)p.m(G)p.r(A)p.m(U)p.r(U)p.r(A)p.r(T)p.r(T)}|RNA2{r(U)p.r(A)p.r(A)p.r(U)p.r(C)p.r(C)p.r(U)p.r(C)p.r(U)p.r(U)p.r(G)p.r(C)p.r(C)p.r(A)p.r(C)p.r(U)p.r(U)p.r(G)p.r(C)p.r(T)p.r(T)}$$$RNA1{StrandType:ss}|RNA2{StrandType:as}$', 'target mRNA knockdown', '55%'),
  ('RNA1{m(U)p.r(U)p.m(A)p.r(C)p.m(A)p.r(A)p.m(A)p.r(G)p.m(G)p.r(A)p.m(U)p.r(C)p.m(U)p.r(C)p.m(C)p.r(U)p.m(C)p.r(C)p.m(C)p.r(T)p.r(T)}|RNA2{r(G)p.r(G)p.r(G)p.r(A)p.r(G)p.r(G)p.r(A)p.r(G)p.r(A)p.r(U)p.m(C)p.m(C)p.r(U)p.r(U)p.r(U)p.r(G)p.r(U)p.r(A)p.r(A)p.r(T)p.r(T)}$$$RNA1{StrandType:ss}|RNA2{StrandType:as}$', 'target mRNA knockdown', '57%');

Here is the next item to consider.
Write down target mRNA knockdown measured for item RNA1{r(C)p.r(G)p.r(U)p.r(A)p.r(C)p.r(G)p.r(C)p.r(G)p.r(G)p.r(A)p.r(A)p.r(U)p.r(A)p.r(C)p.r(U)p.[s4r](U)p.[s4r](C)p.[s4r](G)p.[s4r](A)p.r(T)p.r(T)}|RNA2{r(U)p.r(C)p.r(G)p.r(A)p.r(A)p.r(G)p.r(U)p.r(A)p.r(U)p.r(U)p.r(C)p.r(C)p.r(G)p.r(C)p.r(G)p.[s4r](U)p.[s4r](A)p.[s4r](C)p.[s4r](G)p.r(T)p.r(T)}$$$RNA1{StrandType:ss}|RNA2{StrandType:as}$
83.4%

Taken from the OligoGym collection.
